// provenance: patent US11419918B2

Tested on: BDL-induced cholestasis hepatic fibrosis in rats
Assay: Bile duct ligation (BDL)-induced hepatic fibrosis in rats (biliary cirrhosis rat model)
Format: in vivo, SD rats
Conditions: 50 μg/kg subcutaneous every two days, 14 days
Numbered stars: 1 amine (or outer) side, 2 acyl side, 3 side chain; on linkers, the order of the positions; unused ones are H or OH. Square brackets hold non-standard residues; d marks the D form. Primed or numbered codes have the meaning given here. Side chains are listed from the residue outwards. Ends that are not written are not given here. * marks the point of attachment. C18 diacid = O=C(O)CCCCCCCCCCCCCCCCC(=O)*; γGlu = O=C(O)[C@H](CCC(=O)[*:2])N[*:1]; Stearoyl = CCCCCCCCCCCCCCCCCC(=O)*; Palmitoyl = CCCCCCCCCCCCCCCC(=O)*; PEG2′ = not defined here; Aib = CC(C)(N)C(=O)O
measured-quantity: ALT in the serum (FIG. 6)

Recorded ALT in the serum (FIG. 6), per entry:
[
  {
    "substance": "His-(D-Ser)-Gln-Gly-Thr-Phe-Thr-Ser-Asp-Tyr-Ser-Lys-Tyr-Leu-Asp-Lys(PEG2-PEG2-γGlu-CO(CH2)16CO2H)-Arg-Arg-Ala-Gln-Asp-Phe-Val-Gln-Trp-Leu-Leu-Asn-Thr-Gly-Gly-Pro-Ser-Ser-Gly-Ala-Pro-Pro-Pro-Ser-NH2 (H[dS]QGTFTSDYSKYLDK([PEG2′-PEG2′-γGlu-C18 diacid])RRAQDFVQWLLNTGGPSSGAPPPS-NH2) [Compound 39]",
    "assayed-target": "BDL-induced cholestasis hepatic fibrosis in rats",
    "observed-result": "significantly inhibit"
  },
  {
    "substance": "His-(D-Ser)-Gln-Gly-Thr-Phe-Thr-Ser-Asp-Tyr-Ser-Lys(PEG2-PEG2-CO(CH2)16CH3)-Lys-Leu-Asp-Aib-Arg-Arg-Ala-Gln-Asp-Phe-Val-Gln-Trp-Leu-Met-Asn-Thr-Gly-Gly-Pro-Ser-Ser-Gly-Ala-Pro-Pro-Pro-Ser-NH2 (H[dS]QGTFTSDYSK([PEG2′-PEG2′-Stearoyl])KLD[Aib]RRAQDFVQWLMNTGGPSSGAPPPS-NH2) [Compound 3]",
    "assayed-target": "BDL-induced cholestasis hepatic fibrosis in rats",
    "observed-result": "significantly inhibit"
  },
  {
    "substance": "His-(D-Ser)-Gln-Gly-Thr-Phe-Thr-Ser-Asp-Tyr-Ser-Lys-Tyr-Leu-Asp-Lys(PEG2-PEG2-γGlu-CO(CH2)14CH3)-Arg-Arg-Ala-Gln-Asp-Phe-Val-Gln-Trp-Leu-Met-Asn-Thr-Gly-Gly-Pro-Ser-Ser-Gly-Ala-Pro-Pro-Pro-Ser-NH2 (H[dS]QGTFTSDYSKYLDK([PEG2′-PEG2′-γGlu-Palmitoyl])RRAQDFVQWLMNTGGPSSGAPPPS-NH2) [Compound 6]",
    "assayed-target": "BDL-induced cholestasis hepatic fibrosis in rats",
    "observed-result": "significantly inhibit"
  },
  {
    "substance": "His-(D-Ser)-Gln-Gly-Thr-Phe-Thr-Ser-Asp-Tyr-Ser-Lys(PEG2-PEG2-γGlu-CO(CH2)16CO2H)-Lys-Leu-Asp-Aib-Arg-Arg-Ala-Gln-Asp-Phe-Val-Gln-Trp-Leu-Met-Asn-Thr-Gly-Gly-Pro-Ser-Ser-Gly-Ala-Pro-Pro-Pro-Ser-NH2 (H[dS]QGTFTSDYSK([PEG2′-PEG2′-γGlu-C18 diacid])KLD[Aib]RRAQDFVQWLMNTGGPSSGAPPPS-NH2) [Compound 20]",
    "assayed-target": "BDL-induced cholestasis hepatic fibrosis in rats",
    "observed-result": "significantly inhibit"
  }
]

Q: Entry His-(D-Ser)-Gln-Gly-Thr-Phe-Thr-Ser-Asp-Tyr-Ser-Lys-Tyr-Leu-Asp-Aib-Lys(PEG2-PEG2-CO(CH2)16CO2H)-Arg-Ala-Gln-Asp-Phe-Val-Gln-Trp-Leu-Met-Asn-Thr-Gly-Gly-Pro-Ser-Ser-Gly-Ala-Pro-Pro-Pro-Ser-NH2 (H[dS]QGTFTSDYSKYLD[Aib]K([PEG2′-PEG2′-C18 diacid])RAQDFVQWLMNTGGPSSGAPPPS-NH2) [Compound 10] needs its ALT in the serum (FIG. 6) filled in; supply it.
Ans: significantly inhibit
